# System: WI-38 normal lung fibroblasts
# protocol notes: Cell viability determination via MTS assay, WI-38
# Assay type: cell-based
# protocol conditions: Homo sapiens; WI-38, 48 h treatment; read-out: IC50 (reduce cell viability by 50%)

compound	IC50
CCCCCCCCCCCCC/C=C1/C(=O)O[C@@](C)(OC)[C@@H]1O [subamolide B]	> 20 µM
